- measured.on: 5-HT1A (Homo sapiens, UniProt P08908)
- Sequence (P08908 whole entry, species assumed): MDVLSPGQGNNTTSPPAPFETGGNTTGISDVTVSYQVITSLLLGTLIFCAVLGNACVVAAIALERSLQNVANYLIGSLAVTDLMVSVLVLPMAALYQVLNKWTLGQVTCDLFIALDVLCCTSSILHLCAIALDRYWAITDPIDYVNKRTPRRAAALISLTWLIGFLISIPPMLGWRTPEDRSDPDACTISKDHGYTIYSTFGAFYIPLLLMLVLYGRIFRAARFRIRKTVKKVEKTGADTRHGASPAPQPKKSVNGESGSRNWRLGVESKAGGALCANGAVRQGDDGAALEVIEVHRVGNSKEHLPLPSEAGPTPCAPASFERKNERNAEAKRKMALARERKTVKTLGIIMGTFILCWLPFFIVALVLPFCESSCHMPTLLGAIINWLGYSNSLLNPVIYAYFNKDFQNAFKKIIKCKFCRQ
- assay.notes: 5-HT1A receptor inhibition (Table 3)
- Type: binding
Structures can show the parent of a compound that is named as a salt.
measure.name: inhibition at 10 µM (%)
Dear colleague, please return just the value in %, with no unit written.

Specify reported inhibition at 10 µM for the molecule shown: "c1ccc(CN2CCN(CCCCCn3c4ccccc4c4ccccc43)CC2)cc1"
74.9

Specify reported inhibition at 10 µM for the molecule shown: CC(=O)N1CCN(CCCCC(=O)n2c3ccccc3c3ccccc32)CC1 [Example 2.27, hydrochloride]
25.4

Specify reported inhibition at 10 µM for the molecule shown: "COc1ccccc1N1CCN(CCCCCCn2c3ccccc3c3ccccc32)CC1"
105

Specify reported inhibition at 10 µM for the molecule shown: "Oc1ccccc1N1CCN(CCCCCCn2c3ccccc3c3ccccc32)CC1"
105

Specify reported inhibition at 10 µM for the molecule shown: "Oc1ccccc1N1CCN(CCCCn2c3ccccc3c3ccccc32)CC1"
103

----------
- measured.on: 5-HT1E (Homo sapiens)
- Sequence (P28566 whole entry, species assumed): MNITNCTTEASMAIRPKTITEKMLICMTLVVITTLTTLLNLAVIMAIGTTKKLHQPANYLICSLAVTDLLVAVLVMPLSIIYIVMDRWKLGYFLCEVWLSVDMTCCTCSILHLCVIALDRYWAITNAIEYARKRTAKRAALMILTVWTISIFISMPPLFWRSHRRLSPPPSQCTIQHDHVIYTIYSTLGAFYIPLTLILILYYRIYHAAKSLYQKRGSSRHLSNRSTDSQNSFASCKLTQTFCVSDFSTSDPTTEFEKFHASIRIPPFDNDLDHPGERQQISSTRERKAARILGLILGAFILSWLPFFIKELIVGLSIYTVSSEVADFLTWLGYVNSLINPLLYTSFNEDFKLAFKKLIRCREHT
- assay.notes: 5-HT1E receptor inhibition (Table 1)
- Assay type: binding
Counter-ions that a name gives are not always drawn.
measure.name: inhibition at 10 µM (%)
Dear colleague, please return just the value in %, with no unit written.

Specify reported inhibition at 10 µM for the compound shown: CC1CCCN(CCCCC(=O)n2c3ccccc3c3ccccc32)C1 (centres unmarked) [Example 2.21, hydrochloride]
-6

Specify reported inhibition at 10 µM for the compound shown: O=C(CCCCCN1CCCCCC1)n1c2ccccc2c2ccccc21 [Example 2.7, hydrochloride]
1.8

Specify reported inhibition at 10 µM for the compound shown: "CC1CCN(CCCCCCn2c3ccccc3c3ccccc32)CC1"
-9.4

Specify reported inhibition at 10 µM for the compound shown: CCCCN(C)CCCCCC(=O)n1c2ccccc2c2ccccc21 [Example 2.1, hydrochloride]
51.3

Specify reported inhibition at 10 µM for the compound shown: O=C(CCCCN1CCCC1)n1c2ccccc2c2ccccc21 [Example 2.19, hydrochloride]
16.3

Specify reported inhibition at 10 µM for the compound shown: O=C(CCCCCN1CCCC1)n1c2ccccc2c2ccccc21 [Example 2.3, hydrochloride]
13.9

Specify reported inhibition at 10 µM for the compound shown: O=C(CCCCN1CCCCCC1)n1c2ccccc2c2ccccc21 [Example 2.23, hydrochloride]
-11.7

Specify reported inhibition at 10 µM for the compound shown: "c1ccc2c(c1)c1ccccc1n2CCCCCCN1CCCCCC1"
2.7

Specify reported inhibition at 10 µM for the compound shown: "c1ccc2c(c1)c1ccccc1n2CCCCCCN1CCCC1"
21.1

Specify reported inhibition at 10 µM for the compound shown: CCCCN(C)CCCCC(=O)n1c2ccccc2c2ccccc21 [Example 2.17, hydrochloride]
73.9

Specify reported inhibition at 10 µM for the compound shown: CN(CCCCCC(=O)n1c2ccccc2c2ccccc21)Cc1ccccc1 [Example 2.2, hydrochloride]
10.2

Specify reported inhibition at 10 µM for the compound shown: CC1CCCN(CCCCCCn2c3ccccc3c3ccccc32)C1 (centres unmarked)
1.5

Specify reported inhibition at 10 µM for the compound shown: CN(CCCCC(=O)n1c2ccccc2c2ccccc21)Cc1ccccc1 [Example 2.18, hydrochloride]
-22.5

Specify reported inhibition at 10 µM for the compound shown: CC1CC(C)CN(CCCCCC(=O)n2c3ccccc3c3ccccc32)C1 (centres unmarked) [Example 2.6, hydrochloride]
-21.9

Specify reported inhibition at 10 µM for the compound shown: CC1CCCN(CCCCCC(=O)n2c3ccccc3c3ccccc32)C1 (centres unmarked) [Example 2.5, hydrochloride]
-15.3

Specify reported inhibition at 10 µM for the compound shown: "CCCCN(C)CCCCCCn1c2ccccc2c2ccccc21"
55.7

Specify reported inhibition at 10 µM for the compound shown: CC1CCN(CCCCC(=O)n2c3ccccc3c3ccccc32)CC1 [Example 2.20, hydrochloride]
-19.3

----------
- measured.on: human gene recombinant 5-HT7 receptor expressed in CHO cells (Homo sapiens, UniProt P34969)
- Construct: expressed in transfected cells; host or cells: CHO cells (membrane preparation)
- Sequence (P34969 whole entry): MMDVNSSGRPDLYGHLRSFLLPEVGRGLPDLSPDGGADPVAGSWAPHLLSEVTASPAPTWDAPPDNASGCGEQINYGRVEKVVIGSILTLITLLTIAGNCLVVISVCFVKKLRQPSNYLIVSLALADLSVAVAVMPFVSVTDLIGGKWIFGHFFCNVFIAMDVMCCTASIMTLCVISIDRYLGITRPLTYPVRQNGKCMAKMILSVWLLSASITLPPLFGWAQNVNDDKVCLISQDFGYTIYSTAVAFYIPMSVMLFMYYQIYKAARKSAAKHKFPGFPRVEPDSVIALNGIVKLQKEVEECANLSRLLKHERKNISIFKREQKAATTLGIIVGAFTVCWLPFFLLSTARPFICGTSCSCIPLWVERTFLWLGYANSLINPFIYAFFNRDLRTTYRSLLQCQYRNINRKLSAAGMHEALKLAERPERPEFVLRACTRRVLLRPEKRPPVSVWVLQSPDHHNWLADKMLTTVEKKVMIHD
- assay.notes: Binding affinity for the 5-HT7 serotonin receptor ([3H]LSD radioligand)
- experimental.parameters: 10 μM
Where a name gives a salt, the structure may show the parent alone.
Kind request: treat 90% as inclusive, so inhibition at 10 µM at 90% or higher is Fulfilled, anything lower is Not fulfilled.

Please indicate if the recorded inhibition at 10 µM for CCCCN(C)CCCCC(=O)n1c2ccccc2c2ccccc21 [Example 2.17, hydrochloride] meets or exceeds 90%.
Not fulfilled

Please indicate if the recorded inhibition at 10 µM for c1ccc(C2CCN(CCCCCn3c4ccccc4c4ccccc43)CC2)cc1 [Example 2.50] meets or exceeds 90%.
Fulfilled

Please indicate if the recorded inhibition at 10 µM for CN1CCN(CCCCCCn2c3ccccc3c3ccccc32)CC1 [Example 2.46] meets or exceeds 90%.
Not fulfilled

Please indicate if the recorded inhibition at 10 µM for CC1CC(C)CN(CCCCCC(=O)n2c3ccccc3c3ccccc32)C1 (centres unmarked) [Example 2.6, hydrochloride] meets or exceeds 90%.
Not fulfilled

Please indicate if the recorded inhibition at 10 µM for CN1CCN(CCCCC(=O)n2c3ccccc3c3ccccc32)CC1 [Example 2.28, hydrochloride] meets or exceeds 90%.
Not fulfilled

Please indicate if the recorded inhibition at 10 µM for CN(CCCCC(=O)n1c2ccccc2c2ccccc21)Cc1ccccc1 [Example 2.18, hydrochloride] meets or exceeds 90%.
Not fulfilled

Please indicate if the recorded inhibition at 10 µM for O=C(CCCCN1CCN(c2ccccc2O)CC1)n1c2ccccc2c2ccccc21 [Example 2.30, hydrochloride] meets or exceeds 90%.
Fulfilled

Please indicate if the recorded inhibition at 10 µM for O=C(CCCCN1CCCCCC1)n1c2ccccc2c2ccccc21 [Example 2.23, hydrochloride] meets or exceeds 90%.
Not fulfilled

Please indicate if the recorded inhibition at 10 µM for CC1CCN(CCCCCC(=O)n2c3ccccc3c3ccccc32)CC1 [Example 2.4] meets or exceeds 90%.
Fulfilled

Please indicate if the recorded inhibition at 10 µM for O=C(CCCCN1CCC(c2ccccc2)CC1)n1c2ccccc2c2ccccc21 [Example 2.25, hydrochloride] meets or exceeds 90%.
Fulfilled

Please indicate if the recorded inhibition at 10 µM for O=C(CCCCCN1CCCCCC1)n1c2ccccc2c2ccccc21 [Example 2.7, hydrochloride] meets or exceeds 90%.
Not fulfilled

Please indicate if the recorded inhibition at 10 µM for Oc1ccccc1N1CCN(CCCCn2c3ccccc3c3ccccc32)CC1 [Example 2.55] meets or exceeds 90%.
Fulfilled

----------
Consider the following compounds; for each one, report its inhibition at 10 µM.
- measured.on: 5-HT1A (Homo sapiens, UniProt P08908)
- assay.notes: 5-HT1A receptor inhibition (Table 3)
- Format: binding
Where a name gives a salt, the structure may show the parent alone.
Dear colleague, please return just the value in %, with no unit written.

Specify reported inhibition at 10 µM for the compound shown: Oc1ccccc1N1CCN(CCCn2c3ccccc3c3ccccc32)CC1 [Example 2.59]
105

Specify reported inhibition at 10 µM for the compound shown: CN1CCN(CCCCC(=O)n2c3ccccc3c3ccccc32)CC1 [Example 2.28, hydrochloride]
15.9

Specify reported inhibition at 10 µM for the compound shown: CN1CCN(CCCCCC(=O)n2c3ccccc3c3ccccc32)CC1 [Example 2.12, hydrochloride]
5.5

Specify reported inhibition at 10 µM for the compound shown: O=C(CCCN1CCN(Cc2ccccc2)CC1)n1c2ccccc2c2ccccc21 [Example 2.32, hydrochloride]
69.4

Specify reported inhibition at 10 µM for the compound shown: COc1ccccc1N1CCN(CCCCn2c3ccccc3c3ccccc32)CC1 [Example 2.56]
104

Specify reported inhibition at 10 µM for the compound shown: COc1ccccc1N1CCN(CCCC(=O)n2c3ccccc3c3ccccc32)CC1 [Example 2.34]
104

Specify reported inhibition at 10 µM for the compound shown: O=C(CCCCCN1CCN(c2noc3ccccc23)CC1)n1c2ccccc2c2ccccc21 [Example 2.14, hydrochloride]
80.5

Specify reported inhibition at 10 µM for the compound shown: O=C(CCCN1CCN(c2ccccc2O)CC1)n1c2ccccc2c2ccccc21 [Example 2.33]
101

----------
- measured.on: human gene recombinant 5-HT7 receptor expressed in CHO cells (Homo sapiens)
- assay.notes: Binding affinity for the 5-HT7 serotonin receptor ([3H]LSD radioligand)
Where a name gives a salt, the structure may show the parent alone.
measure.name: log10(Ki) (log10 of the value in nM)
Annotation: log10 of Ki, nM basis.

Specify reported log10(Ki) for the compound shown: "COc1ccccc1N1CCN(CCCn2c3ccccc3c3ccccc32)CC1"
2.19

Specify reported log10(Ki) for the compound shown: O=C(CCCCN1CCN(Cc2ccccc2)CC1)n1c2ccccc2c2ccccc21 [Example 2.29, hydrochloride]
2.45

Specify reported log10(Ki) for the compound shown: O=C(CCCCCN1CCC(Cc2ccccc2)CC1)n1c2ccccc2c2ccccc21 [Example 2.10, hydrochloride]
2.40

Specify reported log10(Ki) for the compound shown: CC1CCCN(CCCCCCn2c3ccccc3c3ccccc32)C1 (stereo not drawn)
2.96

Specify reported log10(Ki) for the compound shown: "Oc1ccccc1N1CCN(CCCCn2c3ccccc3c3ccccc32)CC1"
1.74

Specify reported log10(Ki) for the compound shown: "CCCCN(C)CCCCCCn1c2ccccc2c2ccccc21"
2.71

Specify reported log10(Ki) for the compound shown: O=C(CCCCCN1CCCCCC1)n1c2ccccc2c2ccccc21 [Example 2.7, hydrochloride]
2.79

Specify reported log10(Ki) for the compound shown: O=C(CCCCN1CCCCCC1)n1c2ccccc2c2ccccc21 [Example 2.23, hydrochloride]
2.98

Specify reported log10(Ki) for the compound shown: "COc1ccccc1N1CCN(CCCCCC(=O)n2c3ccccc3c3ccccc32)CC1"
1.87
